The reported measurements were obtained from patent US5763404A.

System: anaesthesized rats
Assay: wheal test, intradermal injection
Format: in vivo, rat
Conditions: Table I; 10 ug peptide intradermally
Non-standard residues stand in square brackets, D forms with d. Residues, ends and D or L forms follow the SMILES beside them. *: point of attachment. dPhe(4-Cl) = N[C@H](Cc1ccc(Cl)cc1)C(=O)O; d2Nal = N[C@H](Cc1ccc2ccccc2c1)C(=O)O; Lys(iPr) = CC(C)NCCCC[C@H](N)C(=O)O; d3Pal = N[C@H](Cc1cccnc1)C(=O)O; Nicotinoyl = O=C(c1cccnc1)*
Field: Wheal. Provide a value for each of the compounds that follow.

CC(=O)N[C@H](Cc1ccc2ccccc2c1)C(=O)N[C@H](Cc1ccc(Cl)cc1)C(=O)N[C@H](Cc1cccnc1)C(=O)N[C@@H](CO)C(=O)N[C@@H](CCCCNC(C)C)C(=O)N[C@H](CCCCNC(=O)c1cccnc1)C(=O)N[C@@H](CC(C)C)C(=O)N[C@@H](CCCCNC(=O)c1cccnc1)C(=O)N1CCC[C@H]1C(=O)N[C@H](C)C(N)=O [compound 24746] (Ac-[d2Nal][dPhe(4-Cl)][d3Pal]S[Lys(iPr)][dK](Nicotinoyl)LK(Nicotinoyl)P[dA]-NH2) ... 132.8 ± 5.9 mm^2 /10

Query compound follows.
The compound identified as CC(=O)N[C@H](Cc1ccc2ccccc2c1)C(=O)N[C@H](Cc1ccc(Cl)cc1)C(=O)N[C@H](Cc1cccnc1)C(=O)N[C@@H](CO)C(=O)N[C@@H](Cc1c[nH]cn1)C(=O)N[C@H](CCCCNC(=O)c1cccnc1)C(=O)N[C@@H](CC(C)C)C(=O)N[C@@H](CCCCNC(=O)c1cccnc1)C(=O)N1CCC[C@H]1C(=O)N[C@H](C)C(N)=O [compound 24745] (Ac-[d2Nal][dPhe(4-Cl)][d3Pal]SH[dK](Nicotinoyl)LK(Nicotinoyl)P[dA]-NH2) registered its Wheal at 136.3 ± 6.8 mm^2 /10

---

Test system: anaesthesized rats
Experiment: wheal test, intradermal injection
Type: in vivo, rat
Conditions: Table I; 10 ug peptide intradermally
Starred links: 1 amine or outer side, 2 acyl side, 3 side chain; linkers in the order of their positions; H or OH if unused. Non-standard residues stand in square brackets, D forms with d. Residues, ends and D or L forms follow the SMILES beside them. *: point of attachment. X4 = O=C(N[C@H]1CC[C@@H](C[C@@H](N[*:1])C(=O)[*:2])CC1)c1cccnc1; X9 = CN=C(NCCC[C@H](N[*:1])C(=O)[*:2])N(C)C; dPhe(4-Cl) = N[C@H](Cc1ccc(Cl)cc1)C(=O)O; Pyrimidin2yl(4,6-Me2) = Cc1cc(C)nc(*)n1; d2Nal = N[C@H](Cc1ccc2ccccc2c1)C(=O)O; Lys(iPr) = CC(C)NCCCC[C@H](N)C(=O)O; Orn(iPr) = CC(C)NCCC[C@H](N)C(=O)O; 3Pal = N[C@@H](Cc1cccnc1)C(=O)O; d3Pal = N[C@H](Cc1cccnc1)C(=O)O; Nicotinoyl = O=C(c1cccnc1)*; Orn = NCCC[C@H](N)C(=O)O
quantity-measured: Wheal (mm^2 /10)
Answers are plain numbers, in mm^2 /10.

CC(=O)N[C@H](Cc1ccc2ccccc2c1)C(=O)N[C@H](Cc1ccc(Cl)cc1)C(=O)N[C@H](Cc1cccnc1)C(=O)N[C@@H](CO)C(=O)N[C@@H](CCCCNC(=O)c1cccnc1)C(=O)N[C@H](CCCCNC(=O)c1cccnc1)C(=O)N[C@@H](CC(C)C)C(=O)N[C@@H](CCCCNC(C)C)C(=O)N1CCC[C@H]1C(=O)N[C@H](C)C(N)=O [Antide] (Ac-[d2Nal][dPhe(4-Cl)][d3Pal]SK(Nicotinoyl)[dK](Nicotinoyl)L[Lys(iPr)]P[dA]-NH2) ... 132.7
CC(=O)N[C@H](Cc1ccc2ccccc2c1)C(=O)N[C@H](Cc1ccc(Cl)cc1)C(=O)N[C@H](Cc1cccnc1)C(=O)N[C@@H](CO)C(=O)N[C@@H](Cc1cccnc1)C(=O)N[C@H](CCCCNC(=O)c1cccnc1)C(=O)N[C@@H](CC(C)C)C(=O)N[C@@H](CCCNC(=N)N)C(=O)N1CCC[C@H]1C(=O)N[C@H](C)C(N)=O [compound 24593] (Ac-[d2Nal][dPhe(4-Cl)][d3Pal]S[3Pal][dK](Nicotinoyl)LRP[dA]-NH2) ... 146.4
CC(=O)N[C@H](Cc1ccc2ccccc2c1)C(=O)N[C@H](Cc1ccc(Cl)cc1)C(=O)N[C@H](CCCCNC(=O)c1cccnc1)C(=O)N[C@@H](CO)C(=O)N[C@@H](Cc1ccc(O)cc1)C(=O)N[C@H](CCCCNC(=O)c1cccnc1)C(=O)N[C@@H](CC(C)C)C(=O)N[C@@H](CCCNC(=N)N)C(=O)N1CCC[C@H]1C(=O)N[C@H](C)C(N)=O [compound 24597] (Ac-[d2Nal][dPhe(4-Cl)][dK](Nicotinoyl)SY[dK](Nicotinoyl)LRP[dA]-NH2) ... 101.0
CC(=O)N[C@H](Cc1ccc2ccccc2c1)C(=O)N[C@H](Cc1ccc(Cl)cc1)C(=O)N[C@H](Cc1cccnc1)C(=O)N[C@@H](CO)C(=O)N[C@@H](CCCNC(=N)N)C(=O)N[C@H](Cc1cccnc1)C(=O)N[C@@H](CC(C)C)C(=O)N[C@@H](CCCCNC(=O)c1cccnc1)C(=O)N1CCC[C@H]1C(=O)N[C@H](C)C(N)=O [compound 24771] (Ac-[d2Nal][dPhe(4-Cl)][d3Pal]SR[d3Pal]LK(Nicotinoyl)P[dA]-NH2) ... 99.0
CC(=O)N[C@H](Cc1ccc2ccccc2c1)C(=O)N[C@H](Cc1ccc(Cl)cc1)C(=O)N[C@H](Cc1cccnc1)C(=O)N[C@@H](CO)C(=O)N[C@@H](CCCCNC(=O)c1cccnc1)C(=O)N[C@H](CCCCNC(=O)c1cccnc1)C(=O)N[C@@H](CC(C)C)C(=O)N[C@@H](CCCNC(C)C)C(=O)N1CCC[C@H]1C(=O)N[C@H](C)C(N)=O [compound 24933] (Ac-[d2Nal][dPhe(4-Cl)][d3Pal]SK(Nicotinoyl)[dK](Nicotinoyl)L[Orn(iPr)]P[dA]-NH2) ... 136.0

Answer for every listed entry: what is its Wheal? The entries follow.
1. CN=C(NCCC[C@H](NC(=O)[C@H](CO)NC(=O)[C@@H](Cc1cccnc1)NC(=O)[C@@H](Cc1ccc(Cl)cc1)NC(=O)[C@@H](Cc1ccc2ccccc2c1)NC(C)=O)C(=O)N[C@H](CCCCNC(=O)c1cccnc1)C(=O)N[C@@H](CC(C)C)C(=O)N[C@@H](CCCCNC(C)C)C(=O)N1CCC[C@H]1C(=O)N[C@H](C)C(N)=O)N(C)C [compound 24931] (Ac-[d2Nal][dPhe(4-Cl)][d3Pal]S[X9][dK](Nicotinoyl)L[Lys(iPr)]P[dA]-NH2)
2. CC(=O)N[C@H](Cc1ccc2ccccc2c1)C(=O)N[C@H](Cc1ccc(Cl)cc1)C(=O)N[C@H](Cc1cccnc1)C(=O)N[C@@H](CO)C(=O)N[C@@H](CCCCNC(=O)c1cccnc1)C(=O)N[C@H](C[C@H]1CC[C@@H](NC(=O)c2cccnc2)CC1)C(=O)N[C@@H](CC(C)C)C(=O)N[C@@H](CCCCNC(C)C)C(=O)N1CCC[C@H]1C(=O)N[C@H](C)C(N)=O [compound 25648] (Ac-[d2Nal][dPhe(4-Cl)][d3Pal]SK(Nicotinoyl)[X4]L[Lys(iPr)]P[dA]-NH2)

Response:
[140, 113.6]

Quick batch: Wheal for everything below.
1. CC(=O)N[C@H](Cc1ccc2ccccc2c1)C(=O)N[C@H](Cc1ccc(Cl)cc1)C(=O)N[C@H](Cc1cccnc1)C(=O)N[C@@H](CO)C(=O)N[C@@H](Cc1c[nH]cn1)C(=O)N[C@H](CCCCNC(=O)c1cccnc1)C(=O)N[C@@H](CC(C)C)C(=O)N[C@@H](CCCNC(=N)N)C(=O)N1CCC[C@H]1C(=O)N[C@H](C)C(N)=O [compound 24545] (Ac-[d2Nal][dPhe(4-Cl)][d3Pal]SH[dK](Nicotinoyl)LRP[dA]-NH2)
2. CC(=O)N[C@H](Cc1ccc2ccccc2c1)C(=O)N[C@H](Cc1ccc(Cl)cc1)C(=O)N[C@H](Cc1cccnc1)C(=O)N[C@@H](CO)C(=O)N[C@@H](CCCCNC(=O)c1cccnc1)C(=O)N[C@H](CCCCNC(=O)c1cccnc1)C(=O)N[C@@H](CC(C)C)C(=O)N[C@@H](CCCNc1nc(C)cc(C)n1)C(=O)N1CCC[C@H]1C(=O)N[C@H](C)C(N)=O [compound 25143] (Ac-[d2Nal][dPhe(4-Cl)][d3Pal]SK(Nicotinoyl)[dK](Nicotinoyl)L[Orn](Pyrimidin2yl(4,6-Me2))P[dA]-NH2)

Response:
1. 139.7
2. 113.6

---

So I've got a bunch of compounds here, and I need their Wheal values.
System: anaesthesized rats
Experiment: wheal test, intradermal injection
Type: in vivo, rat
Details: Table I; 10 ug peptide intradermally
Non-standard residues stand in square brackets, D forms with d. Residues, ends and D or L forms follow the SMILES beside them. *: point of attachment. dPhe(4-Cl) = N[C@H](Cc1ccc(Cl)cc1)C(=O)O; d2Nal = N[C@H](Cc1ccc2ccccc2c1)C(=O)O; Nicotinoyl(6-Me) = Cc1ccc(C(=O)*)cn1; Lys(iPr) = CC(C)NCCCC[C@H](N)C(=O)O; d3Pal = N[C@H](Cc1cccnc1)C(=O)O; Isonicotinoyl = O=C(c1ccncc1)*; Nicotinoyl = O=C(c1cccnc1)*
Please don't drop the unit; write it after the number.

CC(=O)N[C@H](Cc1ccc2ccccc2c1)C(=O)N[C@H](Cc1ccc(Cl)cc1)C(=O)N[C@H](Cc1cccnc1)C(=O)N[C@@H](CO)C(=O)N[C@@H](CCCCNC(=O)c1ccc(C)nc1)C(=O)N[C@H](CCCCNC(=O)c1ccc(C)nc1)C(=O)N[C@@H](CC(C)C)C(=O)N[C@@H](CCCCNC(C)C)C(=O)N1CCC[C@H]1C(=O)N[C@H](C)C(N)=O [compound 25386] (Ac-[d2Nal][dPhe(4-Cl)][d3Pal]SK(Nicotinoyl(6-Me))[dK](Nicotinoyl(6-Me))L[Lys(iPr)]P[dA]-NH2) ... 126.1 mm^2 /10
CC(=O)N[C@H](Cc1ccc2ccccc2c1)C(=O)N[C@H](Cc1ccc(Cl)cc1)C(=O)N[C@H](Cc1cccnc1)C(=O)N[C@@H](CO)C(=O)N[C@@H](CCCCNC(=O)c1cccnc1)C(=O)N[C@H](Cc1cccnc1)C(=O)N[C@@H](CC(C)C)C(=O)N[C@@H](CCCNC(=N)N)C(=O)N1CCC[C@H]1C(=O)N[C@H](C)C(N)=O [compound 22495] (Ac-[d2Nal][dPhe(4-Cl)][d3Pal]SK(Nicotinoyl)[d3Pal]LRP[dA]-NH2) ... 112 mm^2 /10

With those in mind, consider the next compound.
Lab note: compound CC(=O)N[C@H](Cc1ccc2ccccc2c1)C(=O)N[C@H](Cc1ccc(Cl)cc1)C(=O)N[C@H](Cc1cccnc1)C(=O)N[C@@H](CO)C(=O)N[C@@H](CCCCNC(=O)c1ccncc1)C(=O)N[C@H](CCCCNC(=O)c1ccncc1)C(=O)N[C@@H](CC(C)C)C(=O)N[C@@H](CCCCNC(C)C)C(=O)N1CCC[C@H]1C(=O)N[C@H](C)C(N)=O [compound 25146] (Ac-[d2Nal][dPhe(4-Cl)][d3Pal]SK(Isonicotinoyl)[dK](Isonicotinoyl)L[Lys(iPr)]P[dA]-NH2) tested on anaesthesized rats; recorded Wheal was 140.3 mm^2 /10
